Values from patent US20250059205A1

Overview of recorded IC50 for various compounds
Molecular target: His-tagged KRAS G12D protein (Homo sapiens, UniProt P01116, G12D)
Sequence (P01116 1-188 isoform P01116-2 G12D): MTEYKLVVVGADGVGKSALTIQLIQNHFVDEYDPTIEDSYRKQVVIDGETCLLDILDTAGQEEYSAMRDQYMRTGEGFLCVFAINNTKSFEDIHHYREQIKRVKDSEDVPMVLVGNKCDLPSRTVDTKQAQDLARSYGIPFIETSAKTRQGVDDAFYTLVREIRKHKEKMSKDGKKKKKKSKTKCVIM
Test: KRAS G12D TR-FRET Assay
The answer is to be given in nM; state only the numeric part.

Please review the entries below; each comes with its answer.
Quick one: IC50 of "N#Cc1ccc2[nH]ncc2c1-c1ccc2c(N3C[C@H]4CC[C@@H](C3)N4)nc(OC[C@@]34CCCN3C[C@H](F)C4)nc2c1F" ?
108

Same lookup for "Nc1cc(F)c(F)c(-c2c(F)cc3c(N4CC5CCC(C4)N5)nc(OC[C@@]45CCCN4C[C@H](F)C5)nc3c2F)c1" , please.
140

Same lookup for "Cc1c(Cl)cc2[nH]ncc2c1-c1ccc2c(N3C[C@H]4CC[C@@H](C3)N4)nc(OC[C@@]34CCCN3C[C@H](F)C4)nc2c1" , please.
11

Same lookup for "CCc1c(F)ccc2cc(O)cc(-c3ccc4c(N5C[C@H]6CC[C@@H](C5)N6)nc(OC[C@@]56CCCN5C[C@H](F)C6)nc4c3F)c12" , please.
7

Same lookup for "Cc1c(-c2cc(O)cc3ccccc23)ccc2c(N3C[C@H]4C[C@@H](C3)N4)nc(OC[C@@]34CCCN3C[C@H](F)C4)nc12" , please.
43

Same lookup for "Fc1c(-c2c(C3CC3)ccc3[nH]ncc23)ccc2c(N3C[C@H]4CC[C@@H](C3)N4)nc(OC[C@@]34CCCN3C[C@H](F)C4)nc12" , please.
15

Continuing:
Quick one: IC50 of Oc1cc(-c2ccc3c(N4[C@@H]5CNC[C@H]4COC5)nc(OCC45CCCN4CC(F)(F)C5)nc3c2F)c2ccccc2c1 (stereo partly drawn) ?
106

====

Target: His-tagged KRAS G12D protein (Homo sapiens, UniProt P01116, G12D)
Experiment: KRAS G12D TR-FRET Assay
Overview of recorded IC50 for various compounds
The answer is to be given in nM; state only the numeric part.

# value lookup — system His-tagged KRAS G12D protein (Homo sapiens, UniProt P01116, G12D), readout IC50, item Oc1cc(-c2c(F)cc3c(N4C[C@H]5CC[C@@H](C4)N5)nc(OC[C@@]45CCCN4C[C@H](F)C5)nc3c2F)c2c(Cl)cccc2c1 [Example 70]
3

Same lookup for C#Cc1cccc2cc(O)cc(-c3ccc4c(N5[C@@H]6CC[C@H]5CNC6)nc(OC[C@@]56CCCN5C[C@H](F)C6)nc4c3F)c12 [Example 99] , please.
3

Same lookup for CCc1c(F)ccc2cccc(-c3ccc4c(N5C[C@H]6CC[C@@H](C5)N6)nc(OC[C@@]56CCCN5C[C@H](F)C6)nc4c3C)c12 [Example 58] , please.
6

Continuing:
# value lookup — system His-tagged KRAS G12D protein (Homo sapiens, UniProt P01116, G12D), readout IC50, item Oc1cc(-c2c(F)cc3c(N4C[C@@H]5CC[C@H]4CN5)nc(OC[C@@]45CCCN4C[C@H](F)C5)nc3c2F)c2ccccc2c1 [Example 48]
4

Same lookup for Cc1c(-c2cc(O)cc3ccccc23)ccc2c(N3CC4CCC(C3)N4)nc(OCC34CCCN3C[C@H](F)C4)nc12 (stereo in doubt) [Example 32] , please.
5

Same lookup for CCc1cccc2cc(O)cc(-c3c(Cl)cc4c(N5C[C@@H]6CC[C@H]5CN6)nc(OC[C@@]56CCCN5C[C@H](F)C6)nc4c3F)c12 [Example 130] , please.
3
